TGT: CD3ε homodimer protein (human, UniProt P07766 23-126, limits assumed)
Sequence (P07766 23-126 limits assumed): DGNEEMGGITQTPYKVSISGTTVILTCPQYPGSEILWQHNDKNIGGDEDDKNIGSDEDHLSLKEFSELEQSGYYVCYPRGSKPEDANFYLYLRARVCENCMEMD
PROTOCOL_TEXT: SPR, immobilized CD3ε homodimer;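 further: biacore T200 surface plasmon resonance at 25 °C, antibody variants flowed as analytes over amine-coupled CD3ε homodimer on a CM4 chip, variant binding amount divided by that of GLS3000 antibody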
PROPERTY_MEASURED: ratio of amounts bound (vs GLS3000)

Some entries whose results are on file:
BINDER: GLS3000 L27bE (antibody, name in Kabat numbering, V domains shown, one-arm format as m2) VH: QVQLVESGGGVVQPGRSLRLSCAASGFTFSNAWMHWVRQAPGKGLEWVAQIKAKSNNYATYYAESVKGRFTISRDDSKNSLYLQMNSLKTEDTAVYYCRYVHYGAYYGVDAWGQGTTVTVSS VL: DIVMTQSPLSLPVTPGEPASISCRSSQSEVHSNRNTYLHWYQQKPGQAPRLLIYKVSNRFSGVPDRFSGSGSGTDFTLKISRVEAEDVGVYYCGQGTQVPYTFGQGTKLEIK
ratio of amounts bound (vs GLS3000): 0.17

BINDER: GLS3000 N53H (antibody, name in Kabat numbering, V domains shown, one-arm format as m2) VH: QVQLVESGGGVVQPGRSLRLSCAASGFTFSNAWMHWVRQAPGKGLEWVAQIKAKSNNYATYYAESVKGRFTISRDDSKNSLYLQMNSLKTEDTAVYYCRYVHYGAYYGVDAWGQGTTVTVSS VL: DIVMTQSPLSLPVTPGEPASISCRSSQSLVHSNRNTYLHWYQQKPGQAPRLLIYKVSHRFSGVPDRFSGSGSGTDFTLKISRVEAEDVGVYYCGQGTQVPYTFGQGTKLEIK
ratio of amounts bound (vs GLS3000): 1.18

Below: the item to evaluate.
May I ask what ratio of amounts bound (vs GLS3000) has been recorded for GLS3000 Q93A (antibody, name in Kabat numbering, V domains shown, one-arm format as m2) VH: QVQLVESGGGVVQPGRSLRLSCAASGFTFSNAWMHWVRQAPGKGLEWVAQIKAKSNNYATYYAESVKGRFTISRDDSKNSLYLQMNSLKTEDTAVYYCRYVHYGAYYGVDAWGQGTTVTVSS VL: DIVMTQSPLSLPVTPGEPASISCRSSQSLVHSNRNTYLHWYQQKPGQAPRLLIYKVSNRFSGVPDRFSGSGSGTDFTLKISRVEAEDVGVYYCGQGTAVPYTFGQGTKLEIK ?
0.85
